Ref: ChEMBL document CHEMBL1275461

# experiment: Cmax in pulmonary tuberculosis patient at 400 mg/kg, po once daily for 7 days by liquid chromatography-MS/MS analysis
# Type: ADME, organism-based
# Parameters: dose 400 mg/kg, route oral
# settings: human, in vivo
property name: Cmax (ng/mL)
Kindly provide the numeric value in ng/mL only, without the unit symbol.

# query: Cmax of entry COc1nc2ccc(Br)cc2cc1[C@@H](c1ccccc1)[C@@](O)(CCN(C)C)c1cccc2ccccc12 [BEDAQUILINE]
5500

* * *

# experiment: Tmax in pulmonary tuberculosis patient at 400 mg/kg, po once daily for 7 days by liquid chromatography-MS/MS analysis
# Type: ADME, organism-based
# Design: dose 400 mg/kg, route oral
# settings: human, in vivo
property name: Tmax (h)
Kindly provide the numeric value in h only, without the unit symbol.

# query: Tmax of entry COc1nc2ccc(Br)cc2cc1[C@@H](c1ccccc1)[C@@](O)(CCN(C)C)c1cccc2ccccc12 [BEDAQUILINE]
4
